Exercise: state measured z-score for each of the compounds provided.
experiment: P. aeruginosa biofilm formation inhibitors, primary screen, PAO1 strain, BacTiter-Glo luminescence, LB-PBS (AID 1144); conditions: 12 h, higher = more signal
Give bare numbers.

Some solved entries appear below for comparison.
# structure, z-score
data = [
    ("CCO[C@H](c1cc(OC)cc([N+](=O)[O-])c1OC)[C@H](C)C=CCC(=O)OC", -0.0286),
    ("CC(C)=CCCC(C)=CCON=C1C[C@@H](O)[C@@H](O)[C@@H]2[C@@H]3C(=O)N(C(C)(C)C)C(=O)[C@@H]3CC[C@H]12", -0.625),
    ("CC(C)(C)N1C(=O)[C@H]2[C@H]3[C@H](O)C=CC(=O)[C@@H]3CC[C@H]2C1=O", 0.0768),
    ("O=C1C[C@@H](O)[C@@H](O)[C@@H]2[C@@H]3C(=O)N(Cc4ccc5c(c4)OCO5)C(=O)[C@@H]3CC[C@H]12", -0.396),
]

Continue with the next compound.
Prompt: Give me measured z-score, please, for this compound: "C[C@@H]1C=CCC(=O)OC[C@H]2O[C@@H](C=C[C@@H]2O)[C@H](C)C=CCC(=O)OC1"
Completion: -1.11
